tested on: giant foxtail; assay: Test B pre/postemergence giant foxtail; type: in vivo, Setaria faberii; details: Preemergence, Rate 62 g/ha; scale of 0 to 10 where 0 is no effect and 10 is complete control
Property: Giant foxtail plant response rating
Numbers only.

Some solved cases for reference:
| Compound | Target Desc | Property | Measured Value |
| --- | --- | --- | --- |
| Cc1c(-n2c(=O)on(C(=O)N(c3ccc(F)cc3F)C(C)C)c2=O)ccc2ccccc12 | giant foxtail | Giant foxtail plant response rating | 0 |
| CC(C)N(C(=O)n1oc(=O)n(Cc2ccco2)c1=O)c1ccc(F)cc1 | giant foxtail | Giant foxtail plant response rating | 3 |
| CC(C)N(C(=O)n1oc(=O)n(C2CCCC2)c1=O)c1ccc(F)cc1F | giant foxtail | Giant foxtail plant response rating | 9 |

Record Giant foxtail plant response rating for all entries; do not skip any.
1. CC(C)N(C(=O)n1oc(=O)n(CC(=O)OC(C)(C)C)c1=O)c1ccc(F)cc1
2. Cc1ccccc1-n1c(=O)on(C(=O)N(c2ccc(C(C)(C)C)cc2)C(C)C)c1=O
3. CC(C)N(C(=O)n1oc(=O)n(C2CCCCCC2)c1=O)c1ccc(Cl)cc1
4. CC(C)C(C)n1c(=O)on(C(=O)N(c2ccc(F)cc2)C(C)C)c1=O (centres unmarked)
5. CC(C)N(C(=O)n1oc(=O)n(CCC(=O)N(C)C)c1=O)c1ccccc1

A:
1. 6
2. 0
3. 1
4. 9
5. 8

----------
test system: sugar beet; assay: Test B pre/postemergence sugar beet; assay type: in vivo, Beta vulgaris; conditions: Rate 125 g/ha; Preemergence; scale of 0 to 10 where 0 is no effect and 10 is complete control
Property: Sugarbeets plant response rating
Answers are plain numbers.

Some solved cases for reference:
| Compound | Target Desc | Sugarbeets plant response rating |
| --- | --- | --- |
| CC(C)N(C(=O)n1oc(=O)n(C2CC2)c1=O)c1ccc(Cl)cc1 | sugar beet | 0 |
| C=C(Cn1c(=O)on(C(=O)N(c2ccc(F)cc2)C(C)C)c1=O)C[Si](C)(C)C | sugar beet | 0 |

Record Sugarbeets plant response rating for all entries; do not skip any.
1. CC(C)N(C(=O)n1oc(=O)n(CCCF)c1=O)c1ccc(F)cc1
2. CCCCn1c(=O)on(C(=O)N(c2ccc(F)cc2)C(C)C)c1=O
3. CC(C)N(C(=O)n1oc(=O)n(CC(=O)OC(C)(C)C)c1=O)c1ccc(F)cc1
4. Cc1ccccc1-n1c(=O)on(C(=O)N(c2ccc(F)cc2)C(C)C2CC2)c1=O (stereo not drawn)

A:
1. 6
2. 4
3. 0
4. 0

----------
system: rice; experiment: Test B flood test rice; type: in vivo, Oryza sativa; conditions: flood test, listed under Postemergence, Rate 250 g/ha; scale 0 to 10, 0 no effect, 10 complete control
Property: Rice plant response rating
Numbers only.

Some solved cases for reference:
| Smiles Data | Measured Value |
| --- | --- |
| CC(C)Oc1cc(-n2c(=O)on(C(=O)N(c3ccc(F)cc3)C(C)C)c2=O)c(Cl)cc1Cl | 0 |
| CCN(CC)C(=O)n1oc(=O)n(-c2ccc(OC)cc2)c1=O | 0 |
| Cc1ccccc1-n1c(=O)on(C(=O)N(c2ccc(F)cc2)C(C)C)c1=O | 0 |

Record Rice plant response rating for all entries; do not skip any.
1. COc1ccc(-n2c(=O)on(C(=O)N(c3ccc(F)cc3)C(C)C)c2=O)c(C)c1
2. Cc1ccccc1-n1c(=O)on(C(=O)N(c2ccc(C#N)cc2)C(C)C)c1=O

A:
0
0
